# study system: recombinant PIM-1 (Homo sapiens, UniProt P11309)
# Sequence (P11309 whole entry): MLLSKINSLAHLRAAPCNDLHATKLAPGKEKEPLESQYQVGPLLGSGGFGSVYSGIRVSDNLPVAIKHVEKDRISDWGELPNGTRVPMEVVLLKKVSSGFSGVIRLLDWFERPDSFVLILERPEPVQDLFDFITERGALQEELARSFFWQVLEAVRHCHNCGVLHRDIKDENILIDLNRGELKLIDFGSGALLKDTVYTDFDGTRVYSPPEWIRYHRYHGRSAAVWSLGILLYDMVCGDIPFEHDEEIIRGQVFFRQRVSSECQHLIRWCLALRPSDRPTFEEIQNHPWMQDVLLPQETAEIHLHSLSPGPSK
# test protocol: PIM-1 kinase assay (radiometric, 15 uM ATP, DMSO 4%)
# Format: biochemical
# condition context: Table 1; given for compounds with IC50 at or below 2 micromolar; 15 uM ATP; read-out: PIM-1 IC50
property: IC50

- Cn1cncc1CNC(=O)c1cccc(-c2ccc(/C=C3/C(=O)Nc4ccc(F)cc43)o2)c1: < 1 µM
- CN1CCCC(NC(=O)c2cncc(-c3ccc(/C=C4/C(=O)Nc5ccc(Cl)cc54)o3)c2)C1 (stereo not shown): < 1 µM
- Cc1cc(-c2cccc(C(=O)NCCN3CCCC3)c2)oc1/C=C1/C(=O)Nc2ccccc21: < 2 µM
- CN1CCCC(NC(=O)c2ccc(Cl)c(-c3ccc(/C=C4/C(=O)Nc5ccc(F)cc54)o3)c2)C1 (stereo not shown): < 2 µM

###

# study system: recombinant PIM-1 (Homo sapiens, UniProt P11309)
# test protocol: PIM-1 kinase assay (radiometric, 15 uM ATP, DMSO 4%)
# Assay type: biochemical
# condition context: Table 1; % inhibition at the high dose (2 micromolar) in a single screening assay; 15 μM ATP
Quick rule for you: inhibition at 2 µM at 20% or higher means TRUE, lower means FALSE.

- O=C1Nc2ccc(F)cc2/C1=C\c1ccc(-c2ccc(Cl)c(C(=O)N3CCCCC3)c2)o1: FALSE
- CCN(CC)CCNC(=O)c1cccc(-c2coc(/C=C3/C(=O)Nc4ccc(F)cc43)c2)c1: FALSE
- O=C1Nc2cc(C(F)(F)F)ccc2/C1=C\c1ccc(-c2cccc(C(=O)NCCN3CCCC3)c2)o1: FALSE
- CN1CCCCC1CNC(=O)c1ccccc1-c1ccc(/C=C2/C(=O)Nc3ccc(F)cc32)o1 (centres unmarked): FALSE
- O=C1Nc2ccc(F)cc2/C1=C\c1ccc(-c2ccc(C(=O)NCCN3CCCC3)cc2)o1: TRUE
- CCN(CC)CCNC(=O)c1cc(-c2ccc(/C=C3/C(=O)Nc4ccc(F)cc43)o2)ccc1Cl: FALSE
- CN(C)CCCOc1ccc(-c2ccc(/C=C3/C(=O)Nc4ccccc43)o2)cn1: TRUE

###

# Test system: PC-3 human prostatic cancer cells
# test protocol: Alamar Blue cell proliferation assay, PC3
# Format: cell-based
# condition context: Table 4, read-out: AB: PC3
property: IC50 (µM)

* CCN(CC)CCC(=O)Nc1cccc(-c2ccc(/C=C3/C(=O)Nc4ccccc43)o2)c1 [drawing 235] | 3.93
* O=C(CN1CCCC1)Nc1cccc(-c2ccc(/C=C3/C(=O)Nc4ccccc43)o2)c1 [drawing 236] | 1.35

###

# study system: recombinant PIM-1 (Homo sapiens)
# test protocol: PIM-1 kinase assay (radiometric, 15 uM ATP, DMSO 4%)
# Type: biochemical
# condition context: Table 5; compound at 500 nM; read-out: PIM1: % inh 500 nM
Catalogue of compounds with associated inhibition at 0.5 µM
property: inhibition at 0.5 µM (%)

* CN(C)C1CCN(C(=O)c2cccc(-c3coc(/C=C4/C(=O)Nc5ccccc54)c3)c2)CC1 | -38.8
* Cn1cncc1CNC(=O)c1cccc(-c2coc(/C=C3/C(=O)Nc4ccc(F)cc43)c2)c1 [drawing 252] | 12.7
* CCN(CC)CCNC(=O)c1cccc(-c2coc(/C=C3/C(=O)Nc4ccc(F)cc43)c2)c1 [drawing 254] | 11.5
* CN1CCCC(NC(=O)c2cccc(-c3coc(/C=C4/C(=O)Nc5ccc(F)cc54)c3)c2)C1 (centres unmarked) [drawing 249] | 6.11
* Cn1cncc1CNC(=O)c1cccc(-c2coc(/C=C3/C(=O)Nc4ccccc43)c2)c1 | -14.6
* O=C1Nc2ccccc2/C1=C\c1cc(-c2cccc(C(=O)NCc3ccncc3)c2)co1 | -4.22
* CN1CCCCC1CNC(=O)c1cccc(-c2coc(/C=C3/C(=O)Nc4ccc(F)cc43)c2)c1 (centres unmarked) [drawing 253] | 9.42
* O=C1Nc2ccc(F)cc2/C1=C\c1cc(-c2cccc(C(=O)NCc3ccncc3)c2)co1 [drawing 255] | -19.1
* CCN(CC)CCNC(=O)c1cccc(-c2coc(/C=C3/C(=O)Nc4ccccc43)c2)c1 | -10.9
* CCN1CCCC1CNC(=O)c1cccc(-c2coc(/C=C3/C(=O)Nc4ccc(F)cc43)c2)c1 (centres unmarked) [drawing 250] | 17.1
* COC(=O)c1cccc(-c2coc(/C=C3/C(=O)Nc4ccccc43)c2)c1 | -18.4
* CN1CCCCC1CNC(=O)c1cccc(-c2coc(/C=C3/C(=O)Nc4ccccc43)c2)c1 (centres unmarked) | -28.9
* CN1CCCC(NC(=O)c2cccc(-c3coc(/C=C4/C(=O)Nc5ccccc54)c3)c2)C1 (centres unmarked) | -22.7
* CN(C)C1CCN(C(=O)c2cccc(-c3coc(/C=C4/C(=O)Nc5ccc(F)cc54)c3)c2)CC1 [drawing 256] | 10.8

###

# study system: recombinant PIM-1 (Homo sapiens)
# test protocol: PIM-1 kinase assay (radiometric, 15 uM ATP, DMSO 4%)
# Type: biochemical
# condition context: Table 1; given for compounds with IC50 at or below 2 micromolar; 15 uM ATP; read-out: PIM-1 IC50
Catalogue of compounds with associated IC50
property: IC50

- O=C1Nc2ccc(F)cc2/C1=C\c1ccc(-c2cccc(C(=O)NCc3ccncc3)c2)o1: < 2 µM
- O=C1Nc2ccc(F)cc2/C1=C\c1ccc(-c2ccc(C(=O)NCCN3CCCC3)cc2)o1: < 1 µM
- COC(=O)c1ccc2c(c1)/C(=C\c1ccc(-c3cccc(C(=O)NCCN4CCCC4)c3)o1)C(=O)N2: < 1 µM
- CN1CCCN(C(=O)c2cccc(-c3ccc(CC4C(=O)Nc5ccc(Cl)cc54)o3)c2)CC1 (stereo not shown): < 1 µM
- O=C1Nc2ccc(F)cc2/C1=C\c1ccc(-c2cccc(C(=O)O)c2)o1: < 2 µM
- CN1CCC(N(C)C(=O)c2ccc(-c3ccc(/C=C4/C(=O)Nc5ccc(F)cc54)o3)cc2)C1 (stereo not shown): < 1 µM
- CCN1CCCC1CNC(=O)c1cncc(-c2ccc(/C=C3/C(=O)Nc4ccc(Cl)cc43)o2)c1 (stereo not shown) [Compound 151]: < 1 µM
- CCN1CCCC1CNC(=O)c1cccc(-c2ccc(/C=C3/C(=O)Nc4ccc(Cl)cc43)o2)c1 (stereo not shown): < 1 µM
- O=C1Nc2ccc(Cl)cc2/C1=C\c1ccc(-c2cccc(C(=O)NCC(O)c3ccccn3)c2)o1 (stereo not shown): < 1 µM
- O=C1Nc2ccc(Cl)cc2/C1=C\c1ccc(-c2cccc(C(=O)NCc3ccncc3)c2)o1: < 1 µM
- CCN(CC)CCNC(=O)c1cncc(-c2ccc(/C=C3/C(=O)Nc4ccc(Cl)cc43)o2)c1: < 1 µM
- Cc1cnc(CNC(=O)c2ccc(-c3ccc(/C=C4/C(=O)Nc5ccc(Cl)cc54)o3)cc2)cn1: < 1 µM
- CN1CCCCC1CNC(=O)c1ccc(Cl)c(-c2ccc(/C=C3/C(=O)Nc4ccc(F)cc43)o2)c1 (stereo not shown): < 2 µM
- O=C1Nc2ccccc2/C1=C\c1ccc(-c2ccccc2O)o1: < 2 µM
- CN1CCCN(C(=O)c2ccc(-c3ccc(/C=C4/C(=O)Nc5ccc(Cl)cc54)o3)cc2)CC1: < 1 µM
- CCN(CC)CCNC(=O)c1cccc(-c2ccc(/C=C3/C(=O)Nc4ccc(Cl)cc43)o2)c1: < 2 µM
- O=C1Nc2ccc(Cl)cc2/C1=C\c1ccc(-c2cccc(C(=O)NCCCn3ccnc3)c2)o1: < 1 µM
- CCN(CC)CCNC(=O)c1ccc(Cl)c(-c2ccc(/C=C3/C(=O)Nc4ccc(F)cc43)o2)c1: < 1 µM
- O=C1Nc2ccccc2/C1=C\c1ccc(-c2cc(F)cc(C(=O)NCCN3CCCC3)c2)o1: < 2 µM
- Cn1cncc1CNC(=O)c1cccc(-c2ccc(/C=C3/C(=O)Nc4ccc(Cl)cc43)o2)c1: < 1 µM
- CN1CCCC1N(C)C(=O)c1ccc(-c2ccc(/C=C3/C(=O)Nc4ccccc43)o2)cc1 (stereo not shown): < 1 µM
- O=C1Nc2ccc(Cl)cc2/C1=C\c1ccc(-c2cccc(C(=O)NCC(O)c3cccnc3)c2)o1 (stereo not shown): < 1 µM
- O=C1Nc2ccc(Cl)cc2/C1=C\c1ccc(-c2cccc(C(=O)NC3=NCCS3)c2)o1: < 1 µM
- Nc1cc(C(=O)NCCN2CCCC2)ccc1-c1ccc(/C=C2/C(=O)Nc3ccccc32)o1: < 1 µM
- CCN1CCCC1CNC(=O)c1cncc(-c2ccc(/C=C3/C(=O)Nc4ccc(Cl)cc43)o2)c1 (stereo not shown) [Compound 150]: < 1 µM
- O=C1Nc2ccc(Cl)cc2/C1=C\c1ccc(-c2cncc(C(=O)O)c2)o1: < 2 µM
- CN1CCCCC1CNC(=O)c1ccc(-c2ccc(/C=C3/C(=O)Nc4ccc(F)cc43)o2)cc1 (stereo not shown): < 1 µM
- CN(C)C1CCN(C(=O)c2ccc(Cl)c(-c3ccc(/C=C4/C(=O)Nc5ccc(F)cc54)o3)c2)CC1: < 2 µM
- O=C1Nc2ccccc2/C1=C\c1ccc(-c2cc(C(=O)NCCN3CCCC3)ccc2Cl)o1: < 2 µM
- CN1CCC(N(C)C(=O)c2ccc(Cl)c(-c3ccc(/C=C4/C(=O)Nc5ccc(F)cc54)o3)c2)C1 (stereo not shown): < 1 µM
- CN1CCCC(NC(=O)c2ccc(-c3ccc(/C=C4/C(=O)Nc5ccccc54)o3)cc2)C1 (stereo not shown): < 1 µM
